Values from PubChem BioAssay (NCI)

Can you tell me TGI for the items I'm about to list?
Test system: HCT-116 colon
Assay: NCI tumour cell line growth inhibition, 48 h

Entry under review: O=C(Nc1cccc(NC(=O)Nc2cc(C(F)(F)F)ccc2Cl)c1)Nc1cc(C(F)(F)F)ccc1Cl . Reported TGI?
22.8 µM

Entry under review: CC1(C)[C@@H](OC(N)=O)[C@H]2O[C@H]2[C@]2(CO)[C@H]3CC[C@]4(C)[C@@H](c5ccc(=O)oc5)[C@@H](Cl)C[C@]4(O)C3=CC[C@@H]12 . Reported TGI?
0.0262 µM

Entry under review: COc1ccc(OC)c2c1C(=O)C1CC1(Br)C2=O (centres undefined) . Reported TGI?
> 100 µM

Entry under review: CCN(CC)Cc1ccc(Nc2nccc(-c3cnn4ncccc34)n2)cc1 . Reported TGI?
> 25 µM

Entry under review: CCCCN(CCCC)c1ccc(C(=N)c2ccc(N(CCCC)CCCC)cc2)cc1 . Reported TGI?
1.31 µM

Entry under review: CC1(c2ccc[n+](Cc3ccccc3)c2)OCCO1 . Reported TGI?
> 100 µM

Entry under review: COc1ccc(-c2cc(-c3cc4cc(Br)ccc4nc3Cl)c(C#N)c(N)n2)cc1 . Reported TGI?
> 12.5 µM

Entry under review: CCOC(=O)c1cc2c(C(=O)c3ccc([N+](=O)[O-])cc3)c(C(C)=O)ccc2[nH]1 . Reported TGI?
> 100 µM

Entry under review: O=C(NC[C@H](O)CO)c1ccncc1Nc1ccc(I)cc1F . Reported TGI?
> 100 µM

---

Tested on: PC-3 prostate
Experiment: NCI tumour cell line growth inhibition, 48 h
metric: TGI

Entry under review: CC[N+]1(C)CCC(O)(c2ccc(Cl)c(Cl)c2)C(C(=O)c2ccc(Cl)c(Cl)c2)C1 (stereo not given) . Reported TGI?
> 10 µM

Entry under review: NC(=O)c1c(NC(=O)c2ccc3c(c2)OCO3)sc2c1CCC(=O)C2 . Reported TGI?
> 100 µM

Entry under review: COc1c(O)cc(O)c2c(=O)cc(-c3ccccc3)oc12 . Reported TGI?
> 100 µM

Entry under review: OC(CCNCc1ccccc1)c1ccc2ccccc2c1 (stereo not given) . Reported TGI?
47.4 µM

Entry under review: COc1ccc2c(c1)C(=O)c1c-2c(N(C)C)nc2ccccc12 . Reported TGI?
> 100 µM

Entry under review: CCCCCC(C)SC1(C(=O)OC)CC(OC(C)=O)C(NC(C)=O)C([C@H](OC(C)=O)[C@@H](COC(C)=O)OC(C)=O)O1 (stereo not given in full) . Reported TGI?
> 100 µM

Entry under review: CCOC(=O)C(NC(=O)CC)(Nc1cc(C)on1)C(F)(F)F (stereo not given) . Reported TGI?
> 100 µM

Entry under review: COc1ccccc1NC(=O)CC(=O)N1N=C(C)C(N=Nc2ccc(C(=O)O)cc2)C1=O (stereo not given) . Reported TGI?
> 100 µM

Entry under review: C[CH2][Sn]([CH2]C)([O]C(=O)C(OC(C)=O)c1ccccc1)[O]C(=O)C(OC(C)=O)c1ccccc1 (stereo not given) . Reported TGI?
> 100 µM

Entry under review: CN(C)c1ccc2c(c1)OC(N)=C(C#N)C2c1ccc2c(c1)CCO2 (stereo not given) . Reported TGI?
> 100 µM

Entry under review: CN1CC[C@@H](c2c(O)cc(O)c3c(=O)cc(-c4ccccc4Cl)oc23)[C@@H]1CO . Reported TGI?
3.64 µM

Entry under review: CC(C)(Oc1ccc(Cl)cc1)C(=O)N(C(=O)N1CCC(c2ccccc2)CC1)c1ccccc1 . Reported TGI?
> 100 µM

Entry under review: CCc1ccc(NC(=O)COC(=O)c2cc([N+](=O)[O-])ccc2Sc2nnnn2C)cc1 . Reported TGI?
84.5 µM

Entry under review: O=c1c2cc(I)ccc2nc(-c2cccs2)n1-c1ccc(O)cc1 . Reported TGI?
22.5 µM

Entry under review: N#Cc1c(-c2ccc(Cl)cc2)c2c(n(C3OC(CO)C(O)C(O)C3O)c1=S)CCC2 (stereo not given) . Reported TGI?
> 100 µM

Entry under review: COc1cc(/C=C2\Sc3scc(-c4cccc([N+](=O)[O-])c4)[n+]3C2=O)cc(OC)c1OC . Reported TGI?
86.3 µM

Entry under review: O=C(c1cc(Cl)ccc1Cl)N1CCN(C(=O)c2cc(Cl)ccc2Cl)CC1 . Reported TGI?
> 100 µM

Entry under review: NC(=S)N/N=C/c1ncccc1N . Reported TGI?
> 100 µM

Entry under review: CCN(C(=S)N[C@H](C(=O)N[C@@H](C)C(=O)OC)C(C)C)c1ccccc1 . Reported TGI?
> 100 µM

Entry under review: O=c1[nH]nc(-c2ccccc2)n1/N=C/c1cccnc1 . Reported TGI?
> 100 µM
